Test system: PTmAb0005
assay-details: Phage display ranking of peptide ligands for PTmAb0005
Format: binding
stated-conditions: IgEC67 mutants (Table 8)
Source text: Phage display libraries were used to map the binding sites of the monoclonal antibodies using three different phage libraries, displaying either the XCX15, XCX10 or XAX10 peptide sequence (where X is any amino acid) at the N-terminus of the phage gVIIIp. Tables 6 and 7 show the results of selecting for peptide ligands with the anti human IgE monoclonal antibodies […]. […]
Binary call on PTmAb Rank 0005: satisfied from 2 upward, not satisfied beneath that.

These recorded examples may help you get a feel for the data.
construct-sequence | answer-label
ADGAGCFMNKQMADLELCPRTAAEA [IgEC67-1] | satisfied
ADGAGCFMNKQLADLEMCPRDDAEA [IgEC67-9] | satisfied
ADGAGCFMNKQMADWEMCPRAAAEA [IgEC67-11] | not satisfied
ADGAECFMNKQLADSELCPRVAAEA [IgEC67-13] | not satisfied
ADGAGCFMNNQLADWELCPRAAAEA [IgEC67-6] | not satisfied

API: the following record is the query input.
Hello, I need to know if ADGAGCFMNKQQADLELCPRGAAEA [IgEC67-14] has measured PTmAb Rank 0005 not below 2. Thanks!
not satisfied

---

target-entity: PTmAb0011
assay-details: BIAcore affinity to PTmAb0011
Assay type: binding, mouse
stated-conditions: read-out: PTmAb BIAcore KD^Rel (μM) PTmAb0011
From the text: This involved a DNA sub-cloning transfer from the major coat protein (gVIIIp) filamentous phage display vector to a lower copy number minor phage coat protein (gIIIp) display vector with a random PCR step. […] Included in the tables are ranking orders and also BIAcore affinities where available. Thus indicating the importance of correct presentation of the peptides of the present invention to adopt a shape which closely resembles the native target in the context of the whole IgE molecule. [drawing]
Positions of bridges follow the written chain, without caps; N, C: chain ends. Residues, ends and D or L forms follow the SMILES beside them.
quantity-kind: Kd (µM)
Write the answer as a number in µM, unit excluded.

Example results:
compound | quantity-kind | observed
CSCC[C@H](NC(=O)[C@H](CC(N)=O)NC(=O)[C@@H](NC(=O)[C@@H](NC(=O)[C@H](CCC(N)=O)NC(=O)[C@@H](NC(=O)[C@H](CC(=O)O)NC(=O)[C@@H](NC(=O)[C@@H](NC(=O)[C@H](CS)NC(=O)[C@@H](N)CS)C(C)C)[C@@H](C)O)C(C)C)[C@@H](C)O)[C@@H](C)O)C(=O)N[C@@H](CC(=O)O)C(=O)N[C@H](C(=O)N1CCC[C@H]1C(=O)N[C@@H](C)C(=O)NCC(=O)N[C@@H](CCC(N)=O)C(=O)O)C(C)C [IgEC81] (H-CCVTDVQTTNMDVPAGQ-OH) | Kd | 6.3
CC(C)[C@H](NC(=O)[C@H](CC(=O)O)NC(=O)[C@H](CO)NC(=O)[C@@H]1CSSC[C@H](NC(=O)[C@@H](N)CO)C(=O)N[C@@H](C)C(=O)N[C@@H](Cc2ccc(O)cc2)C(=O)N[C@@H]([C@@H](C)O)C(=O)N[C@@H](C)C(=O)N[C@@H](CCC(N)=O)C(=O)N[C@@H](CCCNC(=N)N)C(=O)N[C@@H](CCC(N)=O)C(=O)N1)C(=O)N1CCC[C@H]1C(=O)N[C@@H](CC(N)=O)C(=O)N1CCC[C@H]1C(=O)NCC(=O)O [IgEC69] (H-SCAYTAQRQCSDVPNPG-OH; disulfide 2-10) | Kd | 6.4

Shift focus to the following entry.
Given the compound CC[C@H](C)[C@H](NC(=O)[C@@H]1CSSC[C@H](NC(=O)[C@@H](N)CCCNC(=N)N)C(=O)N[C@@H](CCC(=O)O)C(=O)N[C@@H](CCC(=O)O)C(=O)N[C@@H](Cc2c[nH]c3ccccc23)C(=O)N[C@@H](CC(C)C)C(=O)N1)C(=O)N1CCC[C@H]1C(=O)N1CCC[C@H]1C(=O)N[C@@H](C)C(=O)N1CCC[C@H]1C(=O)N[C@@H](C)C(=O)N[C@@H](Cc1ccccc1)C(=O)N[C@@H](C)C(=O)N1CCC[C@H]1C(=O)N1CCC[C@H]1C(=O)O [EEC21/19] (H-RCEEWLCIPPAPAFAPP-OH; disulfide 2-7) and test system PTmAb0011, the measured Kd is 27.8

Data origin: patent US20050214285A1
